test: qHTS assay to identify small molecule antagonists of the retinoid-related orphan receptor gamma (ROR-gamma) signaling pathway - cell viability counter screen (AID 1159520); settings: Tet-on RORgamma CHO cells viability, ATP luminescence, 16 h; series mostly up to 92.4 µM; further: on the % scale 0 is the no-effect control and ±100 the full control effect; nearly all actives have a fitted effect of over 50% in size
Records with an inconclusive call do not appear. The source made the active and inactive calls. The call rests on the fitted dose curve; in most records, active means well fitted cell-killing curve with a large enough effect in the repeat runs; inconclusive means weak or mixed curves, or effect the other way; inactive means no such curve, though single readings can be large or run the other way.
recorded.metric: activity, negative = cytotoxicity

smiles_text=CCCCCCCCCCCCCCCCCO recorded_metric="activity, negative = cytotoxicity" obs_value="-0.0509% [at 19 µM] (inactive)"
smiles_text=CCN1CCN(c2cc(-c3ccc(F)cc3)c3c(n2)CCCCCC3)CC1 recorded_metric="activity, negative = cytotoxicity" obs_value="-5.78% [at 19 µM] (inactive)"
smiles_text=O=C=NCc1cccc(CN=C=O)c1 recorded_metric="activity, negative = cytotoxicity" obs_value="5.39% [at 19 µM] (inactive)"
smiles_text=O=S(=O)(O)c1cc(S(=O)(=O)O)c2ccc3c(S(=O)(=O)O)cc(S(=O)(=O)O)c4ccc1c2c43 recorded_metric="activity, negative = cytotoxicity" obs_value="3.7% [at 19 µM] (inactive)"
